Values compiled from PubChem BioAssay (NCI).

# Test system: SNB-75 CNS
# assay.comment: NCI tumour cell line growth inhibition, 48 h
Listing of entries alongside the reported TGI.

Observe how each entry below is paired with its result.
CSc1nnc(COc2ccc(Cl)cc2)o1
> 100 µM
c1ccc2[nH]c(-c3ccc(Nc4nc(N5CCCCC5)nc(N5CCOCC5)n4)cc3)nc2c1
16.9 µM

TGI measured on "CCCCn1c(-c2ccc([N+](=O)[O-])cc2)cs/c1=N/N=C1\C(=O)Nc2ccc(Br)cc21" = 59.8 µM

TGI measured on CC(=O)c1ccc2c(c1)CC1(C2)Cc2ccccc2C1=O (stereo unspecified) = > 100 µM

TGI measured on "c1c2c(cc(-n3nnc4c3CCCCCC4)c1-n1nnc3c1CCCCCC3)CCCCCC2" = 32.1 µM

TGI measured on "O=[N+]([O-])c1ccc(Sc2c3ccccc3nc3cc(Cl)ccc23)cc1" = > 100 µM

TGI measured on "N#Cc1nc(C2CCC2)oc1N" = > 100 µM

TGI measured on "O=C(N/N=C/c1ccccc1O)c1ccccc1" = > 100 µM

TGI measured on "CCOC(=O)c1cc2c3c(c(O)c(OC)c2s1)N(C(=O)c1cc2c4c(c(O)c(OC)c2s1)N(C(C)=O)CC4)CC3" = 67.1 µM

TGI measured on N#Cc1ccc(NC(=O)C(CC(=O)OCc2ccccc2)NC(=O)OCc2ccccc2)cc1 (stereo unspecified) = > 100 µM

TGI measured on "Nc1nn2c(=O)c3ccccc3nc2s1" = > 100 µM

---

Listing of entries alongside the reported TGI.
# System: SW-620 colon
# assay.comment: NCI tumour cell line growth inhibition, 48 h

Observe how each entry below is paired with its result.
O=C(C(Cl)=C(N1CCOCC1)N1CCOCC1)C(Cl)Cl
> 100 µM
C=C1C(O)CC[C@]2(C)C1C1OC(C)(C)O[C@]13CC(=O)C(C)=C([C@H]1OC(C)(C)OC12)C3(C)C (stereo not given in full)
> 100 µM
C=Cc1ccccc1C1(O)C=CC(OC)(OC)C=C1
11.5 µM

Now consider a different compound.
TGI measured on "COc1cc2ccc1OCc1cccc(n1)COc1ccc(cc1OC)C=Nc1ccc(cc1)N=C2" = > 100 µM

---

# System: TK-10 renal
# assay.comment: NCI tumour cell line growth inhibition, 48 h; in the data active = GI50 below about 0.43 µM; inactive = the rest
Your reply should match one of these outcome classes. Y (active), N (inactive)

These recorded examples may help you get a feel for the data.
CN(C)C(=O)O[C@H]1CN[C@H](C#Cc2cc3ncnc(Nc4ccc(OCc5cccc(F)c5)c(Cl)c4)c3s2)C1
N
C[C@H]1CCCC(O)C(O)[C@@H]2C[C@H](O[Si](C)(C)C(C)(C)C)C[C@H]2[C@H](O[Si](C)(C)C(C)(C)C)C(O)C(O)C(=O)O1 (stereo partly specified)
N
COC(=O)C1(C)Cc2cc(OC(C)=O)c(OC(C)=O)cc2N1 (stereo unspecified)
N
CCOC(=O)/C(C#N)=C\C=C(/Cl)c1ccc(Cl)cc1
N
O=[N+]([O-])c1ccc(Sc2c3ccccc3nc3cc(Cl)ccc23)cc1
N
CC(C)(C)OC(=O)NCCCCCCCn1c2c(c3ccccc3c1=O)C(=O)c1ccccc1-2
N
O=C(O)[C@@H](Cc1ccc2ccccc2c1)NC(=O)n1c2ccccc2c2ccccc21
N
c1ccc2[nH]c(-c3ccc(Nc4nc(N5CCCCC5)nc(N5CCOCC5)n4)cc3)nc2c1
N
CCNC(=O)c1noc(-c2cc(C(C)C)c(O)cc2O)c1-c1ccc(CN2CCOCC2)cc1
Y
Cc1ccc(NC(=O)c2cc(S(=O)(=O)N3C(=O)NC(=O)NS3(=O)=O)c(S)cc2Cl)cc1
N

Shift focus to the following entry.
Per the assay record, what outcome was assigned to O=C1OCC2=C1C(c1ccccc1)c1cc3c(cc1N2CCO)OCO3 (stereo unspecified) ?
N

---

# Tested on: COLO 205 colon
# assay.comment: NCI tumour cell line growth inhibition, 48 h
Listing of entries alongside the reported GI50.

Observe how each entry below is paired with its result.
Oc1ccccc1-c1nn(CNc2ccccc2Cl)c(=S)o1
27 µM
CC(C)(C)C(=O)[CH-]C(=O)C(C)(C)C.CC(C)(C)C(=O)[CH-]C(=O)C(C)(C)C.CN(C)c1ccc([O-])cc1.CN(C)c1ccc([O-])cc1.[Ti+4]
> 100 µM
COc1ccc(OC)c(Cn2cc3c(c2-c2ccccc2)CCc2cnoc2-3)c1
6.31 µM
O=[N+]([O-])c1ccc(Sc2c3ccccc3nc3cc(Cl)ccc23)cc1
> 100 µM

Now consider a different compound.
Form field GI50 for item "Cc1ccc(-c2nc3nc(-c4ccc(F)cc4)nc(N4CCCNCC4)c3o2)cc1" on COLO 205 colon: 2.03 µM

---

# Test system: SK-MEL-2 melanoma
# assay.comment: NCI tumour cell line growth inhibition, 48 h; in the data active means GI50 below about 0.43 µM; inactive means the rest
Your reply should match one of these outcome classes. class 1 for active, class 0 for inactive

These recorded examples may help you get a feel for the data.
O=[N+]([O-])c1ccc(Sc2c3ccccc3nc3cc(Cl)ccc23)cc1
class 0
COC(=O)C1(C)Cc2cc(OC(C)=O)c(OC(C)=O)cc2N1 (centres undefined)
class 0
C=C(CN(C)C)C(=O)c1ccccc1[N+](=O)[O-]
class 0

Per the assay record, what outcome was assigned to "COc1ccc(CN2C3CC2CN(c2ccc(-c4cc(OCC(C)(C)O)cn5ncc(C#N)c45)cn2)C3)cn1" ?
class 0

Per the assay record, what outcome was assigned to "CNC(=O)c1nn(C)c2c1C(C)(C)Cc1cnc(Nc3ccc(N4CCN(C)CC4)cc3)nc1-2" ?
class 0

Per the assay record, what outcome was assigned to "C(=N\Nc1nnn(Cc2ccccc2)n1)/c1ccccc1" ?
class 0

Per the assay record, what outcome was assigned to "COc1cnc2c(c1)C(=O)c1c-2n(CCCN2CCN(C)CC2)c(=O)c2cc([N+](=O)[O-])ccc12" ?
class 0

Per the assay record, what outcome was assigned to "C=C1C[C@@H]2CC[C@@]34C[C@H]5O[C@H]6[C@@H](O3)[C@H]3O[C@H](CC[C@@H]3O[C@H]6[C@@H]5O4)CC(=O)C[C@@H]3[C@@H](OC)[C@@H](C[C@H](O)CN)O[C@H]3C[C@H]3O[C@@H](CC[C@@H]1O2)C[C@@H](C)C3=C" ?
class 1

Per the assay record, what outcome was assigned to "COc1ccc2c(c1)/C(=C/c1cc(OC)c(OC)c(OC)c1)C(=O)N2" ?
class 0

Per the assay record, what outcome was assigned to "Cc1cc(I)cc(CN(C)CCCN2CCCC2)c1O" ?
class 0

Per the assay record, what outcome was assigned to COc1ccc(/C(=N\NC(=S)NN)C(c2ccc(OC)cc2)C2C(=O)Oc3ccccc32)cc1 (centres undefined) ?
class 0

Per the assay record, what outcome was assigned to "CC(C)(C)C(=O)[CH-]C(=O)C(C)(C)C.CC(C)(C)C(=O)[CH-]C(=O)C(C)(C)C.CN(C)c1ccc([O-])cc1.CN(C)c1ccc([O-])cc1.[Ti+4]" ?
class 0

Per the assay record, what outcome was assigned to "Oc1ccccc1-c1nn(CNc2ccccc2Cl)c(=S)o1" ?
class 0

---

# Test system: COLO 205 colon
# assay.comment: NCI tumour cell line growth inhibition, 48 h
readout.name: TGI

Observe how each entry below is paired with its result.
CO[C@]12C[C@H](CNC(=O)c3ccc[nH]3)O[C@H]1NC(=O)N2
> 100 µM
Cc1nc(C(N)=S)sc1C(=O)/C=C/c1c(O)ccc2ccccc12
> 100 µM
COc1cc(/C=C/C=C2\CC/C(=C\C=C\c3ccc(O)c(OC)c3)C2=O)ccc1O
> 100 µM
O=C(O)[C@@H](Cc1ccc2ccccc2c1)NC(=O)n1c2ccccc2c2ccccc21
5.29 µM
CC(=O)OC1C(COC(=O)c2ccccc2)OC(Nc2ncc(-c3ccc(Br)cc3)s2)C(OC(=O)c2ccccc2)C1OC(=O)c1ccccc1 (configuration not stated)
> 100 µM
COc1cc2c(c(O)c1OC)C(=O)C(Cc1ccc(O)cc1)CO2 (configuration not stated)
> 100 µM

TGI measured on O=C(O)c1ccc(C2C(=O)N[C@@H]3CCC[C@H]23)cc1 (some centres not stated) = > 100 µM

TGI measured on CC(=O)O[C@H]1CCc2c(cc(N)c3c2C(=O)C[C@]2(C)C([C@H](C)CCCC(C)C)CCC32C)C1(C)C (some centres not stated) = > 100 µM

TGI measured on "COc1cc2c(cc1Cc1c(F)cccc1Cl)nc(-c1c(F)cccc1Cl)n2Cc1c(F)cccc1Cl" = > 100 µM

TGI measured on "O=C(Nc1ccc(Cl)c(Cl)c1)NS(=O)(=O)c1cnccc1Oc1ccc(F)cc1" = 7.59 µM

TGI measured on CCCSc1nc(-c2ccc(OC)cc2)c(C#N)c(=O)n1C1OC(COC(C)=O)C(OC(C)=O)C(OC(C)=O)C1OC(C)=O (configuration not stated) = > 100 µM

TGI measured on "O=C(Nc1noc(-c2ccccc2)n1)c1ccccc1CNc1noc(-c2ccccc2)n1" = > 100 µM

TGI measured on "CN(C)CCC(=O)/C=C\c1ccccc1" = 29.3 µM

TGI measured on "Cc1ccc(/C=C2\Cc3c(C)cc(C)cc3C2=O)c(C(=O)O)c1" = 98.2 µM

TGI measured on CC(=O)OCC1OC(N2C(=O)C(=O)c3ccccc32)C(OC(C)=O)C(OC(C)=O)C1OC(C)=O (configuration not stated) = > 100 µM

TGI measured on "Cc1cc(I)cc(CN(C)CCCN2CCCC2)c1O" = 33.1 µM

TGI measured on "Cc1ccc(NC(=O)c2cc(S(=O)(=O)N3C(=O)NC(=O)NS3(=O)=O)c(S)cc2Cl)cc1" = > 100 µM

TGI measured on "O=C1c2ccccc2NC(=S)[C@@H]2CCCN12" = > 100 µM

TGI measured on "CCOC(=O)/C(C#N)=C\C=C(/Cl)c1ccc(Cl)cc1" = > 48 µM

TGI measured on "COC(=O)C1(Cc2ccc3c(c2)CCC3)Cc2ccccc2C1" = 67.8 µM
